// data source = the supplement of paper PMC10567573

B1: LOXL2 (parent)
chain: RLLRFSSQIHNNGQSDFRPKNGRH

- Variants of: B1
- assay_info: protein stability index of a GFP-peptide fusion (GPS, HEK-293T) (PSI 1-6); higher = more stable;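 also: lentivirally expressed fusions sorted by FACS into six bins by GFP to DsRed ratio, PSI derived from sequencing read proportions per bin multiplied by bin number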
- setup_conditions: c terminus: a fixed tail appended
property_label: protein stability index
Keep the answer to the number alone.

Worked cases, protein stability index given:
{"primary_sequence": "QLLRFSSQIHNNGQSDFRPKNGRH", "measured": 2.48}
{"primary_sequence": "RLLFFSSQIHNNGQSDFRPKNGRH", "measured": 2.32}
{"primary_sequence": "RLLRFSSQIHNNGQSDFRPKNERH", "measured": 2.4}

Write down protein stability index measured for item RLLRPSSQIHNNGQSDFRPKNGRH
3.71

Using the record for RLLRFSSQIHNNGQSDYRPKNGRH , state its measured protein stability index.
2.69

Kindly indicate its recorded protein stability index. Item: RLLRFSSQIHNNGQSDFRPCNGRH
2.35

For the variant RLLRFSEQIHNNGQSDFRPKNGRH , give its measured protein stability index value.
2.79

Give the value of protein stability index reported for the following: RLLRFSSQIWNNGQSDFRPKNGRH
2.13

In one line, give reported protein stability index of the entry RLLRHSSQIHNNGQSDFRPKNGRH .
3.95

Tell us which protein stability index value is on record for RLLRFSSQIHNNGQSDFRPKNGRI
2.54

Name the recorded protein stability index of the item RLLRFSSQIHNPGQSDFRPKNGRH in your answer.
3.15
